Attribution: PubChem BioAssay AID651558

assay: qHTS Assay to Find Inhibitors of Chronic Active B-Cell Receptor Signaling: Hit Validation in Primary Screen; conditions: ABC-DLBCL IkB-luc/CBR ratio luminescence, 4 h; series mostly up to 46.1 µM; also: nearly all actives have a fitted effect of over 75% in size; also: potency is read from the fitted curve at half-maximal effect
Hit rate of the full screen: of about 1,200 compounds, about 480 (40%) were called active. Inconclusive results (about 29%) are left out. The list shows a part of the results.
Measurement Kind: Potency

# example entries with known answers
Problem: Would you mind telling me what Potency value was observed for `O=C(Oc1c(CN2CCOCC2)cc(Cl)c2cccnc12)c1ccccc1F` ?
Result: inactive

Problem: Would you mind telling me what Potency value was observed for `COCCNC(=S)N/N=C(\C)c1ccc(Cl)s1` ?
Result: inactive

Problem: Would you mind telling me what Potency value was observed for `COc1cc(Br)cc(/C=C/c2ccc3cccc(O)c3n2)c1O` ?
Result: 20.6 µM (active)

Problem: Would you mind telling me what Potency value was observed for `O=C(Oc1ccc(F)cc1C(=O)/C=C/c1cccs1)c1cccc([N+](=O)[O-])c1` ?
Result: 1.46 µM (active)

Problem: Would you mind telling me what Potency value was observed for `COc1ccc(/C=C/C(=O)c2cc(Br)ccc2OC(=O)c2ccco2)cc1OC` ?
Result: 5.8 µM (active)

Read the next record carefully.
Problem: Would you mind telling me what Potency value was observed for `COc1ccc(-c2noc(CSc3nc(N)c(-c4ccccc4)c(=O)[nH]3)n2)cc1OC` ?
Result: 7.31 µM (active)

* * *

assay: qHTS Assay to Find Inhibitors of Chronic Active B-Cell Receptor Signaling: Hit Validation in Primary Screen; details: ABC-DLBCL IkB-luc/CBR ratio luminescence, 4 h; series mostly up to 46.1 µM; also: nearly all actives have a fitted effect of over 75% in size
Screen size: about 1,200 compounds; about 480 (40%) were called active. About 29% were inconclusive and are not listed. Calls follow the shape of the dose curve; as a rule, active = well fitted inhibition curve with a large enough effect; inconclusive = small, poorly fitted or top-dose-only effect; inactive = no such curve, though single readings can be large or run the other way. The list shows a part of the results.
Form entry, call: pick from active, inactive

Problem: Short answer needed: outcome of this test for `Cc1ccc(C(=O)c2cc([N+](=O)[O-])ccc2N2CCCCC2)cc1` ?
Result: active

Problem: Short answer needed: outcome of this test for `Cc1ccc(CCC(=O)Nc2ncc(Cc3cc(Cl)ccc3Cl)s2)o1` ?
Result: active

Problem: Short answer needed: outcome of this test for `CCc1ccc(CCC(=O)Nc2ncc(Cc3ccccc3Cl)s2)o1` ?
Result: active

Problem: Short answer needed: outcome of this test for CCOC(=O)C1(C)C(C(=O)OC)=C(c2ccc(OC)cc2)c2ccccc2N1C(=O)OC (stereo unspecified) ?
Result: inactive

Problem: Short answer needed: outcome of this test for `CCOC(=O)c1ccc(NC(=O)Nc2ccon2)cc1` ?
Result: active

Problem: Short answer needed: outcome of this test for COc1ccccc1C1CC(=O)Nc2cc3c(cc21)OCCO3 (stereo unspecified) ?
Result: active

Problem: Short answer needed: outcome of this test for `O=[N+]([O-])c1cc(Cl)c2cccnc2c1O` ?
Result: inactive

Problem: Short answer needed: outcome of this test for COc1ccc(OCC(O)CN2CCN(c3ccccc3)CC2)cc1 (stereo unspecified) ?
Result: inactive

Problem: Short answer needed: outcome of this test for `O=C(Nc1ccc([N+](=O)[O-])cc1)Nc1ccon1` ?
Result: active

Problem: Short answer needed: outcome of this test for CC1CCCN(c2ccc([N+](=O)[O-])cc2C(=O)c2ccccc2)C1 (stereo unspecified) ?
Result: active

Continuing:
Problem: Short answer needed: outcome of this test for `CCOC(=O)c1ccc(NC(=S)NNC(C)(C)C)cc1` ?
Result: inactive
